target.under.test: 15-PGDH (Homo sapiens, UniProt P15428)
Construct: 15-PGDH is highly expressed in resting human lung adenocarcinoma cells (A549); endogenous in cells; host or cells: A549
Sequence (P15428 whole entry): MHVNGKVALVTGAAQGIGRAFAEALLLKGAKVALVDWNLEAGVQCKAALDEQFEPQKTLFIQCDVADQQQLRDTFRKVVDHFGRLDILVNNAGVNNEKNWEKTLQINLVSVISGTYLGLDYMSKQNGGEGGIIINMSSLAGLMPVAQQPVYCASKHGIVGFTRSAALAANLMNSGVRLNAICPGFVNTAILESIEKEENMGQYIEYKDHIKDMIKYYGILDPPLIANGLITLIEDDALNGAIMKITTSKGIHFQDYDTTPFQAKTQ
assay.summary: A549 cell based assay: PGE2 in supernatant after IL-1β (HTRF)
test.parameters: A549 cells; fold induction of PGE2, IL-1β plus test article versus IL-1β only; 0.001 μM
Give PGE2 - HTRF over IL-β induction at 0.001 μM for every item shown.
Respond using a number only.

input: Would you mind telling me what PGE2 - HTRF over IL-β induction at 0.001 μM value was observed for "O=C(Nc1cncc(-n2ccc3cc(C(=O)N4CCC(F)(F)CC4)cnc32)c1)C1CCOCC1" ?
output: 0.34

input: Request: CCC1CCCN(C(=O)c2cnc3c(ccn3-c3cncc(NC(=O)OC)c3)c2)C1 (stereo in doubt) [Compound B-70]
output: 3.59

input: Request: "CNc1nc2ccc(-n3ccc4cc(C(=O)N5CCC(F)(F)CC5)cnc43)cn2n1"
output: 1.57

input: Request: "C[C@H]1CCCN(C(=O)c2cnc3c(ccn3-c3ccc4nc(N(C)C)nn4c3)c2)C1"
output: 1.57

input: Request: "O=C(c1cnc2c(ccn2-c2ccc(-c3nnc(C4CC4)[nH]3)cc2)c1)N1CCC(F)(F)CC1"
output: 2.17

input: Request: "O=C(c1cnc2c(ccn2-c2ccc(N3C(=O)CCC3=O)cc2)c1)N1CCC(F)(F)CC1"
output: 0.90

input: Request: CCC1CCCN(C(=O)c2cnc3c(ccn3-c3ccc(N4CCOC4=O)nc3)c2)C1 (centres unmarked)
output: 6.05

input: Request: "O=C(Nc1cncc(-n2ccc3cc(C(=O)N4CCC(F)(F)CC4)cnc32)c1)C1CCCC1"
output: 0.70
